target: T1, RhoB Q63L (UniProt P62745 1-193, limits assumed); assay: binding kinetics, method not stated (Table 1)
T1 construct: also called RhoB Q63L (2SHA); constitutively active RhoB mutant
T1 sequence (P62745 1-193 Q63L limits assumed): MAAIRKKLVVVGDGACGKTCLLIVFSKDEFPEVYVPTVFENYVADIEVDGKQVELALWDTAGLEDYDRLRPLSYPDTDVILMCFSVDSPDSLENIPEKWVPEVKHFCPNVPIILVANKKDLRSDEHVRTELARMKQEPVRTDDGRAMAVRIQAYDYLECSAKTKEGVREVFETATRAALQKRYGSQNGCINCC
PROPERTY: koff (s⁻¹)

# annotated cases, reported koff shown
{"columns": ["BINDER", "READOUT_UNITS", "koff"],
 "data": [
  ["5SNP48 hs2dAb (VHH) VHH: VQLQASGGGFVQPGGSLRLSCAASGTSWFTEVMGWFRQAPGKEREFVSAISGLHDVGTYYADSVKGRFTISRDNSKNTVYLQMNSLRAEDTATYYCAALDKWYTKAMDARKDYWGQGTQVTVSS", "s⁻¹", 0.0024],
  ["H12 hs2dAb (VHH, Humanized synthetic single domain antibody; Soluble form was used in ELISA and immunofluorescence and detected through a myc tag; also called clone H12; H12 antibody) VHH: VQLQASGGGFVQPGGSLRLSCAASGDGSRIYAMGWFRQAPGKEREFVSAISWEQDWEHYYADSVKGRFTISRDNSKNTVYLQMNSLRAEDTATYYCAAFMTPHRNLTSMYWGQGTQVTVSS", "s⁻¹", 0.000359]
]}

a = 5SNP65 hs2dAb (VHH) VHH: VQLQASGGGFVQPGGSLRLSCAASGATYEGEAMGWFRQAPGKEREFVSAISSYPSVISYYADSVKGRFTISRDNSKNTVYLQMNSLRAEDTATYYCAYWVNHEGTIREIYWGQGTQVTVSS
b = 4SNP61 hs2dAb (VHH) VHH: VQLQASGGGFVQPGGSLRLSCAASGFTSTSTVMGWFRQAPGKEREFVSAISSAHTMDTYYADSVKGRFTISRDNSKNTVYLQMNSLRAEDTATYYCAPAPMLGQMITQPALPYWGQGTQVTVSS
Query: Please compare: a and b . Report which one has the smaller koff value. Bench note: the answer is the label of the chosen record.
Response: a
